Biological target: T1, recombinant human TGF-β RII/Fc chimera protein (human, UniProt P37173 24-159)
T1 construct: range 24-159; Made in HEK-F cells; Biotinylated where it was put on SA chips, otherwise captured by anti-human IgG; also called human TGFbRII/Fc; hRII-Fc; not shown: Fc region of human IgG1
T1 sequence (P37173 24-159 limits assumed, change not shown): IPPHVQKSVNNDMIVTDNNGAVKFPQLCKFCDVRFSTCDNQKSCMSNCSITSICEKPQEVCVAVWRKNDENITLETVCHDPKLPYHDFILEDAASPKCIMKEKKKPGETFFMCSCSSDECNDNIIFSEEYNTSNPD
Assay: SPR Biacore, purified dAb; antigen taken as human TGF-β RII/Fc
Property: Kd; scope: individual binders
value_type: Kd (nM)

{"binder": "DOM23h-439 (VHH) VHH: EVQLLESGGGLVQPGGSLRLSCAASGFTFGTEQMWWVRQAPGKGLEWVSRIDSPGGRTYYADSVKGRFTISRDNSKNTLYLQMNSLRAEDTAVYYCAKRHAAGVSGTYFDYWGQGTLVTVSS", "value_observed": 24.2}
{"binder": "DOM23h-843-13 (VHH, human VH dAb, error-prone matured; expressed from pDOM13, tag not described) VHH: EVQLLESGGGLVQPGGSLRLSCAASGFTFDQDRMWWVRQAPGKGLEWVSAIESGGHRTYYADSVKGRFTISRDNSKNTLYLQMNSLRAEDTAVYYCANQNKSGRSGFDYWGQGTLVTVSS", "value_observed": 4.13}
